Data origin, for the record: patent US9573956B2

Field: IC50. Provide a value for each of the compounds that follow.
target: HDAC1 (Homo sapiens, UniProt Q13547); test: HDAC enzyme activity assay (fluorogenic substrate), HDAC1; format: biochemical; details: recombinant enzyme; read-out: HDAC1 inhibition (IC50)
Sequence (Q13547 whole entry): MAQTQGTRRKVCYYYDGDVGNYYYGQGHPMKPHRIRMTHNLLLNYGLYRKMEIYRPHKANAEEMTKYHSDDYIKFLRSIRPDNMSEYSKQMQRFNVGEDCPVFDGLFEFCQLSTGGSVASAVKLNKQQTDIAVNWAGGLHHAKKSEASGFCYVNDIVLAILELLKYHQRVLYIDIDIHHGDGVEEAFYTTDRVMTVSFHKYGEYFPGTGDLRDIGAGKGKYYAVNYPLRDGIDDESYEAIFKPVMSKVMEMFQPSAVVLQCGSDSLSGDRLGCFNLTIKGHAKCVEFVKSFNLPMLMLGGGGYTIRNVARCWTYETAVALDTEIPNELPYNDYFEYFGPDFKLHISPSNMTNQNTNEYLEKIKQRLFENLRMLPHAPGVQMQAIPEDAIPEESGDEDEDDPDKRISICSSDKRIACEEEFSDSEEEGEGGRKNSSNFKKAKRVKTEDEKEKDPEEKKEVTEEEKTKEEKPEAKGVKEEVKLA

In the examples that follow, each entry is paired with its recorded IC50.
CCCc1nn(C)c2c(=O)[nH]c(-c3cc(C4=CCC(C(=O)NO)CC4)ccc3OCC)nc12 (stereo not drawn)    1000 to 10000 nM
CCCc1nc(C)c2c(=O)[nH]c(-c3cc(Cc4ccc(/C=C/C(=O)NO)cc4)ccc3OCC)nn12    1000 to 10000 nM
CCCc1nn(C)c2c(=O)[nH]c(-c3cc(Cc4ccc(C(=O)NO)cc4OC)ccc3OCC)nc12    > 10000 nM
CC1CN(CC2CC(C(=O)NO)C2)CC1c1nc2c(cnn2C2CCOCC2)c(=O)[nH]1 (racemic)    1000 to 10000 nM

Provide each entry's IC50 from the list below.
1. CCCc1nn(C)c2c(=O)[nH]c(-c3cc(CN4CCC(C(=O)NO)CC4)ccc3OCC)nc12
2. CCCc1nn(C)c2c(=O)[nH]c(-c3cc(Cc4ccc(C(=O)NO)cc4F)ccc3OCC)nc12
3. CC1CN(CC2CCN(c3ncc(C(=O)NO)cn3)CC2)CC1c1nc2c(cnn2C2CCOCC2)c(=O)[nH]1 (racemic)
4. CN1CC(=O)N2[C@H](c3ccc4c(c3)OCO4)c3[nH]c4ccccc4c3C[C@@H]2C1=O [Tadalafil, reference compound]
5. CC(c1nc2c(cnn2C2CCOCC2)c(=O)[nH]1)N1CC(Oc2ccc(C(=O)NO)cc2)C1 (stereo not drawn)
6. CCCc1nn(C)c2c(=O)[nH]c(-c3cc(CN4CCN(c5ncc(C(=O)NO)cn5)CC4)ccc3OCC)nc12
7. CCCc1nn(C)c2c(=O)[nH]c(-c3cc(CC4CC(C(=O)NO)C4)ccc3OCC)nc12 (stereo not drawn) [Example 1-63]
8. CCCc1nn(C)c2c(=O)[nH]c(-c3cc(N4CCC5(CCCN(c6ncc(C(=O)NO)cn6)C5)C4)ccc3OCC)nc12 (stereo not drawn)

1. 1000 to 10000 nM
2. 1000 to 10000 nM
3. 10 to 1000 nM
4. > 10000 nM
5. 10 to 1000 nM
6. 10 to 1000 nM
7. 10 to 1000 nM
8. 10 to 1000 nM
